Experiment: Cytotoxicity against human MRC5 cells assessed as inhibition of cell growth incubated for 72 hrs by MTS assay
Format: toxicity, cell-based
measured.property: IC50 at 72 h

Answered cases to consult:
INSERT INTO assay_data (smiles_code, measured_property, result) VALUES
  ('CC(=O)OC[C@]12CC[C@@H](c3ccc4c(c3)C(=O)NC4=O)[C@@H]1[C@H]1CC[C@@H]3[C@@]4(C)CC[C@H](OC(C)=O)C(C)(C)[C@@H]4CC[C@@]3(C)[C@]1(C)CC2', 'IC50 at 72 h', '> 50 µM'),
  ('COC(=O)c1cc([C@@H]2CC[C@]3(CO)CC[C@]4(C)[C@H](CC[C@@H]5[C@@]6(C)CC[C@H](O)C(C)(C)[C@@H]6CC[C@]54C)[C@@H]23)cc(-c2ccccc2)c1C(=O)OC', 'IC50 at 72 h', '> 50 µM');

Below: the item to evaluate.
Which IC50 at 72 h reading was recorded for the compound COc1ccc(N2C(=O)c3ccc([C@@H]4CC[C@]5(C(=O)O)CC[C@]6(C)[C@H](CC[C@@H]7[C@@]8(C)CC[C@H](O)C(C)(C)[C@@H]8CC[C@]76C)[C@@H]45)cc3C2=O)cc1 ?
> 50 µM
